Entries and their pIC50
- system name: human mu opioid receptor (Homo sapiens, UniProt P35372)
- Sequence (P35372 whole entry): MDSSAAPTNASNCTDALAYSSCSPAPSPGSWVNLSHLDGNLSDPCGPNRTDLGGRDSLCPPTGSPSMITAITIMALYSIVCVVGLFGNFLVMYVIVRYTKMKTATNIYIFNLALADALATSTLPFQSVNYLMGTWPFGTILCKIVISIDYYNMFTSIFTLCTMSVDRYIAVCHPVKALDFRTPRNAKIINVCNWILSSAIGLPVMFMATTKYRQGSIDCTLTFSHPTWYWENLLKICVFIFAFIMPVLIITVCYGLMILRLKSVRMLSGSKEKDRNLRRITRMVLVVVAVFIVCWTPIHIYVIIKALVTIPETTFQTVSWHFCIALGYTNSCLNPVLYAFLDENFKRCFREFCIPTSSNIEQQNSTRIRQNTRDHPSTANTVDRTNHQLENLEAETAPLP
// field semantics: pIC50 = negative decimal log of concentration (mol/L)

Use the examples below as a reference point.
| compound | pIC50 |
| --- | --- |
| C[N+]1(CC2CC2)CC[C@]23c4c5ccc(O)c4O[C@H]2[C@@H](O)CC[C@@]3(O)[C@H]1C5 (stereo partly drawn) [Compound I-1] | 6.96 |
| C[N+]1(CC2CC2)CC[C@]23c4c5ccc(OS(=O)(=O)O)c4O[C@H]2C(=O)CC[C@@]3(O)[C@H]1C5 (stereo partly drawn) [Compound I-3, 3 sulfo-methylnaltrexone] | 5.08 |

Now examine the next entry.
stdin: Please report the recorded pIC50 for C[N+]1(CC2CC2)CC[C@]23c4c5ccc(O)c4O[C@H]2[C@H](O)CC[C@@]3(O)[C@H]1C5 (stereo partly drawn) [Compound I-2] .
stdout: 6.64

----------
- system name: human mu opioid receptor (Homo sapiens, UniProt P35372)
Entries and their Ki
Could you give me the number in nM? Just the number is fine.

Use the examples below as a reference point.
| molecule | readout label | unit of measure | observed |
| --- | --- | --- | --- |
| C[N+]1(CC2CC2)CC[C@]23c4c5ccc(OS(=O)(=O)O)c4O[C@H]2C(=O)CC[C@@]3(O)[C@H]1C5 (stereo partly drawn) [Compound I-3, 3 sulfo-methylnaltrexone] | Ki | nM | 2200 |
| C[N+]1(CC2CC2)CC[C@]23c4c5ccc(O)c4O[C@H]2[C@@H](O)CC[C@@]3(O)[C@H]1C5 (stereo partly drawn) | Ki | nM | 30 |

Now examine the next entry.
stdin: Form entry - test system: human mu opioid receptor (Homo sapiens, UniProt P35372); read-out: Ki; molecule: C[N+]1(CC2CC2)CC[C@]23c4c5ccc(O)c4O[C@H]2[C@H](O)CC[C@@]3(O)[C@H]1C5 (stereo partly drawn)
stdout: 60

----------
Entries and their IC50
- system name: μ-opioid receptors in the guinea pig ileum (Cavia porcellus)
- Sequence (A0ACM8Q262 1-400): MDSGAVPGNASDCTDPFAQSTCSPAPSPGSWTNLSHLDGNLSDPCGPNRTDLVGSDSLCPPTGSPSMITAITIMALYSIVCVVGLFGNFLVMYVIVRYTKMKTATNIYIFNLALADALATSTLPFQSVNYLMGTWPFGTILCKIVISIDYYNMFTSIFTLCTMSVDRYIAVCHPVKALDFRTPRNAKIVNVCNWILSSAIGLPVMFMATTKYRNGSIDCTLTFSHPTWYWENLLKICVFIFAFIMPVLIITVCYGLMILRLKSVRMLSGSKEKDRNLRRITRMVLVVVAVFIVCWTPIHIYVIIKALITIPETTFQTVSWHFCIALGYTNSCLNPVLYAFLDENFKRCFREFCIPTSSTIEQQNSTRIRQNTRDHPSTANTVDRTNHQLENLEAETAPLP
- test summary: Functional activity: inhibition of DAMGO-induced decrease of twitch contraction amplitude in guinea pig ileum
- condition context: read-out: IC50 Value (concentration causing a half-maximal inhibition of DAMGO-induced decrease of twitch contraction amplitude)
Could you give me the number in nM? Just the number is fine.

Use the examples below as a reference point.
| compound | system name | unit of measure | observed |
| --- | --- | --- | --- |
| C[N+]1(CC2CC2)CC[C@]23c4c5ccc(O)c4O[C@H]2[C@@H](O)CC[C@@]3(O)[C@H]1C5 (stereo partly drawn) | μ-opioid receptors in the guinea pig ileum (Cavia porcellus) | nM | 170 |
| C[N+]1(CC2CC2)CC[C@]23c4c5ccc(OS(=O)(=O)O)c4O[C@H]2C(=O)CC[C@@]3(O)[C@H]1C5 (stereo partly drawn) [Compound I-3, 3 sulfo-methylnaltrexone] | μ-opioid receptors in the guinea pig ileum (Cavia porcellus) | nM | 10000 |

Now examine the next entry.
stdin: Please report the recorded IC50 for C[N+]1(CC2CC2)CC[C@]23c4c5ccc(O)c4O[C@H]2[C@H](O)CC[C@@]3(O)[C@H]1C5 (stereo partly drawn) .
stdout: 140

Cited source for all entries: patent US8853232B2
